System: UCD52 (cells of a triple-negative basal-like breast cancer xenograft)
protocol.description: cell viability (% of vehicle); higher = less cytotoxic
cond: 1 µM; 72 h
Classify: 1.0 when cell viability is strictly less than 70; 0.0 when cell viability is not.

C=C1C(=CC=C2CCCC3(C)C2CCC3C(C)CCCC(C)(C)O)CC(O)CC1O (configuration not stated); 1.0
O=C1C=CC=CC1=C1NC(=C2C=CC=CC2=O)N(c2ccc(C(=O)O)cc2)N1; 0.0
COc1cccc2c1C(=O)c1c(O)c3c(c(O)c1C2=O)CC(O)(C(=O)CO)CC3OC1CC(N)C(O)C(C)O1.Cl (configuration not stated) [Doxorubicin (Adriamycin) HCl]; 1.0
CC(C)(C)c1ccc(C(=O)CCCN2CCC(OC(c3ccccc3)c3ccccc3)CC2)cc1; 0.0
Cl.Nc1ccn(C2OC(CO)C(O)C2O)c(=O)n1 (configuration not stated) [Cytarabine hydrochloride]; 0.0
C=C(c1ccc(C(=O)O)cc1)c1cc2c(cc1C)C(C)(C)CCC2(C)C; 0.0
CC1=C(C(=O)OC(C)C)C(c2cccc([N+](=O)[O-])c2)C(C(=O)OC2CN(C(c3ccccc3)c3ccccc3)C2)=C(N)N1 (configuration not stated); 0.0

====

System: HCI01 (cells of a triple-negative basal-like breast cancer xenograft)
protocol.description: cell viability (% of vehicle); higher = less cytotoxic
cond: 1 µM; 72 h
reported.property: cell viability

COc1ccccc1OCCNCC(O)COc1cccc2[nH]c3ccccc3c12 (stereo unspecified); 92.5
COc1ccc2c(O[C@H]3CC4C(=O)N(C)CCCC/C=C\[C@H]5C[C@@]5(C(=O)NS(=O)(=O)C5CC5)NC(=O)[C@@H]4C3)cc(-c3nc(C(C)C)cs3)nc2c1C (stereo partly specified); 104
CNCCCC12CCC(c3ccccc31)c1ccccc12.Cl [Maprotiline HCl]; 90.9
CNC(=O)c1cc(Oc2ccc(NC(=O)Nc3ccc(Cl)c(C(F)(F)F)c3)c(F)c2)ccn1; 103
CC(C)Nc1cc(-c2c[nH]c(C(=O)NC(CO)c3cccc(Cl)c3)c2)c(Cl)cn1 (stereo unspecified); 84.8
Cl.O.O=C1Cc2cc(CCN3CCN(c4nsc5ccccc45)CC3)c(Cl)cc2N1 [Ziprasidone hydrochloride monohydrate]; 88.5

====

Listing of recorded cell viability of combination by entry.
Test system: UCD52
protocol.description: cell viability of combination (% of vehicle); higher = less cytotoxic
cond: 1 µM; 72 h; partner dose: 10 nM
reported.property: cell viability of combination

COC(=O)NC(C(=O)N1CCCC1c1ncc(-c2ccc(-c3ccc(-c4cnc(C5CCCN5C(=O)C(NC(=O)OC)C(C)C)[nH]4)cc3)cc2)[nH]1)C(C)C (stereo not drawn) + CC(C)C[C@H](NC(=O)[C@H](CCc1ccccc1)NC(=O)CN1CCOCC1)C(=O)N[C@@H](Cc1ccccc1)C(=O)N[C@@H](CC(C)C)C(=O)[C@@]1(C)CO1 [Carfilzomib]; 60.4
CC[C@H](C)[C@H]1O[C@]2(CC[C@@H]1C)C[C@@H]1C[C@@H](C/C=C(\C)[C@@H](O[C@H]3C[C@H](OC)[C@@H](O[C@H]4C[C@H](OC)[C@@H](O)[C@H](C)O4)[C@H](C)O3)[C@@H](C)/C=C/C=C3\CO[C@@H]4[C@H](O)C(C)=C[C@@H](C(=O)O1)[C@]34O)O2 [Ivermectin] + CC(C)C[C@H](NC(=O)[C@H](CCc1ccccc1)NC(=O)CN1CCOCC1)C(=O)N[C@@H](Cc1ccccc1)C(=O)N[C@@H](CC(C)C)C(=O)[C@@]1(C)CO1 [Carfilzomib]; 43
CC(C)C1=CC(=C2NNC(=O)N2c2ccc3c(ccn3C)c2)C(=O)C=C1O [Ganetespib (STA-9090)] + CC(C)C[C@H](NC(=O)[C@H](CCc1ccccc1)NC(=O)CN1CCOCC1)C(=O)N[C@@H](Cc1ccccc1)C(=O)N[C@@H](CC(C)C)C(=O)[C@@]1(C)CO1 [Carfilzomib]; 58.6

Source listed as the supplement of paper PMC6992640.
